For each entry below, report its IC50 value.
- target desc: p53-MDM2 interaction (GST-MDM2 protein aa 23-117 / biotinylated p53 wt peptide) (Homo sapiens (Human))
- Sequence (Q00987 23-117): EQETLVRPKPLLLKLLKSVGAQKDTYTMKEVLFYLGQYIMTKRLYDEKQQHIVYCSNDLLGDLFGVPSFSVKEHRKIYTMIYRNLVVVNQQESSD
- assay summary: Mdm2-p53 Inhibition AlphaScreen
- Type: binding
- protocol conditions: GST-MDM2 (aa 23-117) / biotinylated p53 wt peptide
Expressed in nM, but write only the number.

Report IC50 for Cc1cc2c(nc3n2CC[C@H]2[C@@H]3[C@H](c3cccc(Cl)c3F)[C@]3(C(=O)Nc4cc(Cl)ccc43)N2CC2CC2)c(C)c1C(=O)O [Ib-161] please. 11

Query COCCOCCNC(=O)c1ccc2c3n(nc2c1)[C@@H]1[C@H](C3)N(CC2CCC2)[C@@]2(C(=O)Nc3cc(Cl)ccc32)[C@H]1c1cccc(Cl)c1F [Ia-49] next 6

Query O=C(O)c1cc2nc3n(c2cc1C(F)(F)F)CC[C@H]1[C@@H]3[C@H](c2cccc(Cl)c2F)[C@]2(C(=O)Nc3cc(Cl)ccc32)N1CC1CC1 [Ib-164] next 3

Values were extracted from patent US10717742B2.
